FYI, the data here is from patent US20260151494A1.

studyTarget: T1, human CD71 extracellular domain (human, UniProt P02786 89-760)
T1 construct: also called hCD71; human CD71-ECD
T1 sequence (P02786 89-760): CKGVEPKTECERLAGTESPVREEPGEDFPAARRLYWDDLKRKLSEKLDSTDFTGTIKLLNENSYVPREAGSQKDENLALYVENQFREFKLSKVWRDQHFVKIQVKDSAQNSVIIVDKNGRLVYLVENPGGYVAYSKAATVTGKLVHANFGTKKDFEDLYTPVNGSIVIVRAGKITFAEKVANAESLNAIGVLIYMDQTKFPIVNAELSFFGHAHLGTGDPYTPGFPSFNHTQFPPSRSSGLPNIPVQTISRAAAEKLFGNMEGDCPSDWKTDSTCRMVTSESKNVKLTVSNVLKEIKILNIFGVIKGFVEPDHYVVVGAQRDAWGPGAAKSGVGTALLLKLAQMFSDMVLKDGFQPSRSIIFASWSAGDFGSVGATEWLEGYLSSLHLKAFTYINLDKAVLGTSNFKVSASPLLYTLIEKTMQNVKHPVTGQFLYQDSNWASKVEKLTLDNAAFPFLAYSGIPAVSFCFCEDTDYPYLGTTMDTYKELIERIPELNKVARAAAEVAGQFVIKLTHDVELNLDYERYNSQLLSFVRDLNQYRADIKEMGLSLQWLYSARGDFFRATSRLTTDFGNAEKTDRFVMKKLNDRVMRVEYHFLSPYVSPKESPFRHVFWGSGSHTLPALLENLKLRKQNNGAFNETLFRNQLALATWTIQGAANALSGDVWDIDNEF
testMethodNotes: primary ELISA, signal ratio to HSA
In this section we review reported hCD71:HSA values for a set of binders.
Could you respond with only the numeric value?

>>> resultvalue("CD71-binding FN3 domain of SEQ ID NO: 208 (designed binder) MSLPAPKNLVVSRVTEDSARLSWTAPDAAFDSFFIGYFENLYLGEAIVLTVPGSERSYDLTGLKPGTEYWVQIGGVKGGNWSAPLSAIFTT")
142
>>> resultvalue("CD71-binding FN3 domain of SEQ ID NO: 171 (designed binder) MSLPAPKNLVVSRVTEDSARLSWTAPDAAFDSFEIGYFENLYLGEAIVLTVPGSERSYDLTGLKPGTEYWVQIGGVKGGEWSSPLSAIFTT")
109
>>> resultvalue("CD71-binding FN3 domain of SEQ ID NO: 193 (designed binder) MSLPAPKNLVVSRVTEDSARLSWTAPDAAFDSFEIGYFENLYLGEAIVLTVPGSERSYDLTGLKPGTEYWVQIGGVKGGNWSEPLSAIFTT")
68

Next:
Challenge: Requested read-out: hCD71:HSA. Entry: CD71-binding FN3 domain of SEQ ID NO: 124 (designed binder) MSLPAPKNLVVSRVIEDSARLSWTAPDAAFDSFEIGYFENLYLGEAIVLTVPGSERSYDLTGLKPGTEYWVQIGGVKGGNWSAPLSAIFTT
Response given: 43
